- assay-details: qHTS Assay for inhibitors of the human cytomegalovirus (HCMV); further: on the % scale 0 is the no-effect control and ±100 the full control effect
- test-settings: HFF cells, HCMV-luciferase reporter, 72 h; at 57.5 µM
In all, about 410,000 compounds went through this assay and about 18,000 (4.4%) were called active. Another 7% or so got no clear call; they are omitted. No stated cut-off is given here; in the data, active means activity change below about -60%; inconclusive means no clear call, values can overlap the other calls; inactive means above about -39%. The full list was thinned out, with actives kept by preference.
Choose the fitting class; nothing outside active, inactive is accepted.

q: State the result this test recorded for COc1ccc(-c2nc(-c3ccccc3)no2)c(OC)c1 .
a: active

q: State the result this test recorded for COC(=O)N(NC(=O)C(O)(C(C)C)C(C)C)c1ccccc1 .
a: inactive

q: State the result this test recorded for COc1ccc(-c2cc(-c3nc(-c4cc(OC)c(OC)c(OC)c4)no3)[nH]n2)c(OC)c1 .
a: active

q: State the result this test recorded for Cc1c(Cl)c([N+](=O)[O-])nn1Cc1ccc(C(=O)N/N=C\c2cc(Cl)ccc2O)o1 .
a: active

----------
- assay-details: qHTS Assay for inhibitors of the human cytomegalovirus (HCMV); further: on the % scale 0 is the no-effect control and ±100 the full control effect
- test-settings: HFF cells, HCMV-luciferase reporter, 72 h; at 57.5 µM; hits give low values
Among all 410,000 compounds or so, about 18,000 (4.4%) were called active. Not shown: some 7% with an inconclusive outcome. For the sample, actives were picked, then their nearest neighbours and some compounds at random.
measurement-kind: activity change, negative = inhibition (%)
Record the value in %, omitting the unit from your answer.

q: Name the recorded activity change, negative = inhibition of the compound listed here: Cc1ccc(C)c(NC(=O)Cn2ccn(-c3ccc(F)cc3)c(=O)c2=O)c1
a: -35.9

q: Name the recorded activity change, negative = inhibition of the compound listed here: CCC(C)(C)NC(=O)CN(Cc1cccs1)C(=O)CNS(=O)(=O)c1ccc(F)cc1
a: -8.36

q: Name the recorded activity change, negative = inhibition of the compound listed here: Cc1cccn2c(=O)c3cc(C(=O)NC(C)c4ccccc4)c(=N)n(CCCO)c3nc12 (configuration not stated)
a: -15.1

q: Name the recorded activity change, negative = inhibition of the compound listed here: Cc1cc(C)nc(-n2ncc3c2CC(c2ccc(C(C)C)cc2)CC3=O)n1 (configuration not stated)
a: -22.8

q: Name the recorded activity change, negative = inhibition of the compound listed here: COCCCn1c(C(=O)NC2CCCCC2)cc2c(=O)n3cccc(C)c3nc21
a: 1.95

q: Name the recorded activity change, negative = inhibition of the compound listed here: Cc1ccc2nc3c(cc(C(=O)NC4CCCCC4)c(=N)n3C(C)C)c(=O)n2c1
a: -12.2

q: Name the recorded activity change, negative = inhibition of the compound listed here: COc1cc(OC)cc(C(=O)Nc2nnc(SCC(=O)NCC3CCCO3)s2)c1 (configuration not stated)
a: -2.96

----------
- assay-details: qHTS Assay for inhibitors of the human cytomegalovirus (HCMV); further: on the % scale 0 is the no-effect control and ±100 the full control effect
- test-settings: HFF cells, HCMV-luciferase reporter, 72 h; at 57.5 µM
- Experimental: NCGC Assay Overview: Infection with human cytomegalovirus (HCMV) continues to pose significant threats for pregnant women and immunocompromised hosts. […] This is a cell-based assay for HCMV inhibition in HFFs cells. […] At 72 h post infection cell lysates were collected and luciferase activity was determined using the Glomax-Multi + Detection System (Promega, Madison, WI). […]
Hit rate of the full screen: of about 410,000 compounds, about 18,000 (4.4%) were called active. Another 7% or so got no clear call; they are omitted. Cut-off read from the data, not from the text of the source: active = activity change below about -60%; inconclusive = no clear call, values can overlap the other calls; inactive = above about -39%. Many of the other results were omitted from the sample, so actives are more common in it than they were.
Choose the fitting class; nothing outside YES = active, NO = inactive is accepted.

q: State the result this test recorded for COc1cncc(-c2cnc3sc(NCCc4ccccn4)nn23)c1 .
a: YES

q: State the result this test recorded for COc1ccc(NC(=O)CCNS(=O)(=O)c2ccc3c(c2)CCCC(=O)N3)cc1Cl .
a: NO

q: State the result this test recorded for COc1ccc([N+](=O)[O-])cc1NCC(=O)c1ccc(C)cc1 .
a: NO

q: State the result this test recorded for CCOc1ccc(-c2n[nH]c3c2C(c2ccccc2OC)N(c2ccc(Br)cc2)C3=O)cc1 (configuration not stated) .
a: NO

q: State the result this test recorded for CCOc1cccc(/C=C/c2ccc3ccccc3n2)c1OC(C)=O .
a: YES

q: State the result this test recorded for O=C1CCCCN1CCCC(=O)N1CCCC(Nc2ccc(F)cc2)C1 (configuration not stated) .
a: NO

q: State the result this test recorded for Cc1n[nH]c(=O)nc1N/N=C/c1cccs1 .
a: NO

q: State the result this test recorded for Clc1ccc(C[n+]2cc(-c3ccc(Cl)cc3)n3c2CCC3)cc1 .
a: YES

q: State the result this test recorded for Cc1ccc(C)c2sc(NC(=O)c3ccc(S(=O)(=O)N4CCCC4)cc3)nc12 .
a: NO

q: State the result this test recorded for COc1ccc(NC(=O)Nc2ccc3nsnc3c2)cc1 .
a: YES

q: State the result this test recorded for COc1ccc(OCC(=O)Nc2cccc(C(=O)OCc3cc(=O)n4nc(C)sc4n3)c2)cc1 .
a: NO

q: State the result this test recorded for O=C(NCCCN1CCN(c2cccc(Cl)c2)CC1)c1nnc(Cc2ccc(F)cc2Cl)o1 .
a: NO

q: State the result this test recorded for Fc1ccccc1-c1noc2nc(OCc3ccc(OC(F)F)cc3)ccc12 .
a: NO

q: State the result this test recorded for COC(=O)c1c(C)oc(C)c1S(=O)(=O)NCc1ccc(Cl)cc1 .
a: NO

q: State the result this test recorded for CC(=O)c1ccc(S(=O)(=O)N2CCN(c3nc4c(C)c(C)ccc4cc3C#N)CC2)cc1 .
a: YES

q: State the result this test recorded for Cc1ccc(-n2c(=O)c3cccnc3n2CC(=O)Nc2ccccc2C(F)(F)F)cc1C .
a: NO

q: State the result this test recorded for COC(=O)[C@@]1(Sc2ccc(OC)cc2)CC(=O)N(c2ccc(OC)cc2C)[C@@H]1c1ccc(OC(C)C)c(OC)c1 .
a: NO

q: State the result this test recorded for COc1ccc(C(=O)c2c3ccc([N+](=O)[O-])cc3[n+]([O-])n2CCCN)cc1 .
a: YES

q: State the result this test recorded for CC1(C)C(C=C(Cl)Cl)C1C(=O)NC(O)C(=O)c1ccccc1 (configuration not stated) .
a: NO

q: State the result this test recorded for O=C(CCn1ccc2cc(S(=O)(=O)N3CCCC3)ccc21)NCc1cccc(Cl)c1 .
a: NO

q: State the result this test recorded for C=CCn1cc(-c2cccc(C(F)(F)F)c2)cc(C#N)c1=O .
a: NO

q: State the result this test recorded for CCOc1ccc(CCNC(=O)c2cc3c(=O)n(C)c4ccccc4c3n2C)cc1 .
a: NO

q: State the result this test recorded for O=C(NCCC1CCCCN1S(=O)(=O)c1ccc(F)cc1)C(=O)NC1CC1 (configuration not stated) .
a: NO

q: State the result this test recorded for O=C(CSCc1cnn(-c2ccccc2)c1-n1cccc1)NCc1ccccc1Br .
a: NO

q: State the result this test recorded for COc1ccc(-c2nc3sc(CCNC(=O)C(C)(C)C)c(C)n3n2)cc1 .
a: NO

q: State the result this test recorded for CCOC(=O)c1cc2cc(OC)ccc2n1C1CCN(C)CC1 .
a: NO

q: State the result this test recorded for C=CCN1C(=O)N(Cc2ccccc2)c2ccccc2S1(=O)=O .
a: NO

q: State the result this test recorded for O=C(NCC1CCCCC1)NCC1CCCCC1 .
a: YES

q: State the result this test recorded for CC1=C(C(=O)OC(C)(C)C)C(c2ccc(Br)cc2)NC(=O)N1CCCC(=O)O (configuration not stated) .
a: NO

q: State the result this test recorded for CCCCNC(=O)c1nc2cc(C)c(C)cc2nc1-c1ccc(OC)cc1 .
a: NO

q: State the result this test recorded for CCCCNC(=O)C(C)N(CCN(C)C)C(=O)CCCN1C(=O)NC(c2ccc(Cl)cc2)C(C(=O)OCc2ccccc2)=C1C (configuration not stated) .
a: YES

q: State the result this test recorded for CCn1c(CC(=O)Nc2ccc(C)cc2)nnc1SCC(=O)Nc1nc(C)cs1 .
a: NO

----------
Please respond with reported activity change, negative = inhibition for every item in the list.
- assay-details: qHTS Assay for inhibitors of the human cytomegalovirus (HCMV); further: on the % scale 0 is the no-effect control and ±100 the full control effect
- test-settings: HFF cells, HCMV-luciferase reporter, 72 h; at 57.5 µM; hits give low values
Out of some 410,000 compounds screened, about 18,000 (4.4%) were called active. Not shown: some 7% with an inconclusive outcome. Shown is part of a subset that was picked to be rich in actives.
Record the value in %, omitting the unit from your answer.

q: Name the recorded activity change, negative = inhibition of the molecule listed here: CCC1NC(=O)c2cccnc2-n2c1nc1ccc(C)cc1c2=O (stereo not drawn)
a: -2.47

q: Name the recorded activity change, negative = inhibition of the molecule listed here: COc1ccccc1C1C(C(=O)N2CCCCC2)=C(C)Nc2nc3ccccc3n21 (stereo not drawn)
a: 1.21

q: Name the recorded activity change, negative = inhibition of the molecule listed here: Cc1ccccc1NC(=S)N(CCCN1CCOCC1)Cc1cccs1
a: -30.9

q: Name the recorded activity change, negative = inhibition of the molecule listed here: CSc1ncc(C(=O)NCc2ccccc2Cl)c(C(F)(F)F)n1
a: -2.41

q: Name the recorded activity change, negative = inhibition of the molecule listed here: O=C(/C=C/c1ccccc1[N+](=O)[O-])OCC(=O)N1CCCC1
a: 11.1

q: Name the recorded activity change, negative = inhibition of the molecule listed here: COCCCNC(=O)/C(C#N)=C/c1c(N2CCCCCC2)nc2ccccn2c1=O
a: -37.9

q: Name the recorded activity change, negative = inhibition of the molecule listed here: N=c1ccccn1Cc1ccccc1
a: -18.5

q: Name the recorded activity change, negative = inhibition of the molecule listed here: O=C1OC(C(=O)Nc2cccc(Br)c2)Cc2ccccc21 (stereo not drawn)
a: 7.91

q: Name the recorded activity change, negative = inhibition of the molecule listed here: Fc1ccccc1CCNc1nnnn1-c1ccccc1
a: -28.9

q: Name the recorded activity change, negative = inhibition of the molecule listed here: O=C(CSc1ccc(-c2ccco2)nn1)NCc1ccc2c(c1)OCO2
a: -3.61

q: Name the recorded activity change, negative = inhibition of the molecule listed here: O=C(CN1C(=O)COc2ccc(S(=O)(=O)N3CCCCCC3)cc21)N1CCN(c2cccc(C(F)(F)F)c2)CC1
a: -23.3

q: Name the recorded activity change, negative = inhibition of the molecule listed here: CC1CCCCC1NC(=O)/C(C#N)=C/C=C/c1ccccc1[N+](=O)[O-] (stereo not drawn)
a: -109

q: Name the recorded activity change, negative = inhibition of the molecule listed here: CCOc1ccc(N(Cc2ccccc2)C(=O)c2nc(SCC)ncc2Cl)cc1
a: -68.2

q: Name the recorded activity change, negative = inhibition of the molecule listed here: COc1ccc(N(Cc2ccc(N(C)C)cc2)C(=O)c2ccc(S(C)(=O)=O)cc2)cc1
a: 6.32

q: Name the recorded activity change, negative = inhibition of the molecule listed here: CCSc1ncc(Cl)c(C(=O)Nc2c(C(=O)c3ccccc3)oc3ccccc23)n1
a: 12.8

q: Name the recorded activity change, negative = inhibition of the molecule listed here: Cn1cc(S(=O)(=O)N2CCCCCC2)cc1C(=O)N1CCN(c2ccc(F)cc2)CC1
a: -13.3

q: Name the recorded activity change, negative = inhibition of the molecule listed here: CC1=C(C(=O)OCC(C)C)C(c2ccc(OCc3ccccc3)cc2)N2C(=O)CCSC2=N1 (stereo not drawn)
a: 14.9

q: Name the recorded activity change, negative = inhibition of the molecule listed here: CC(C)=CCc1ccc(O)c(=O)cc1C(C)C
a: -101

q: Name the recorded activity change, negative = inhibition of the molecule listed here: CCc1ccccc1NC(=S)N(CCN1CCCCCC1)Cc1ccco1
a: 29.5

q: Name the recorded activity change, negative = inhibition of the molecule listed here: Cc1cc(C)cc(Oc2nc3c(C)cccn3c(=O)c2/C=C(\C#N)C(=O)NC2CCS(=O)(=O)C2)c1 (stereo not drawn)
a: 44.8

q: Name the recorded activity change, negative = inhibition of the molecule listed here: COc1ccc(Nc2ncc3c(n2)CCN(C(=O)OC(C)(C)C)C3)cc1
a: 12.2

q: Name the recorded activity change, negative = inhibition of the molecule listed here: Cc1ccc(C(=O)COC(=O)C(Cc2c[nH]c3ccccc23)NC(=O)c2ccc(Br)cc2)cc1 (stereo not drawn)
a: 0

q: Name the recorded activity change, negative = inhibition of the molecule listed here: CCOC(=O)C1CCN(c2nc3c(S(=O)(=O)c4ccc(CC)cc4)nnn3c3ccc(Cl)cc23)CC1
a: 10.1

q: Name the recorded activity change, negative = inhibition of the molecule listed here: C=CCNC(=O)COc1coc(CN2CCN(Cc3ccccc3)CC2)cc1=O
a: -9

q: Name the recorded activity change, negative = inhibition of the molecule listed here: CCOC(=O)c1c(C)[nH]c(C)c1S(=O)(=O)NCC(=O)NCc1cccc(C)c1
a: -20.2

q: Name the recorded activity change, negative = inhibition of the molecule listed here: COc1ccc(-c2c3c(=O)n(C)c(=O)n(C)c3c3c(C)nc4ccccc4n23)cc1
a: 6.41

q: Name the recorded activity change, negative = inhibition of the molecule listed here: Cc1ccccc1CSCCNC(=O)c1ccc(Cl)c(S(=O)(=O)N2CCOCC2)c1
a: -33.1

q: Name the recorded activity change, negative = inhibition of the molecule listed here: CN(C)CCCn1c(-c2ccc(Cl)cc2)csc1=Nc1ccccc1
a: -19.8

q: Name the recorded activity change, negative = inhibition of the molecule listed here: Cc1ccccc1C(=O)Nc1cc(C)c(O)c(-c2nc3ccccc3o2)c1
a: -13.9

q: Name the recorded activity change, negative = inhibition of the molecule listed here: Cc1cc(NC(=O)CCC(=O)N(CC(=O)NCC2CCCO2)c2ccccc2)no1 (stereo not drawn)
a: -24.8

q: Name the recorded activity change, negative = inhibition of the molecule listed here: O=C(c1cccc(Br)c1)N1CCN(Cc2cc(=O)n3nc(-c4ccccc4)sc3n2)CC1
a: -19.8

q: Name the recorded activity change, negative = inhibition of the molecule listed here: O=C1CCCN1CCCNC(=S)Nc1ccc(F)c(Cl)c1
a: -22.1

q: Name the recorded activity change, negative = inhibition of the molecule listed here: CCN(C(=O)COC(=O)Cc1c(F)cccc1Cl)c1c(N)n(Cc2ccccc2)c(=O)[nH]c1=O
a: 2.58

q: Name the recorded activity change, negative = inhibition of the molecule listed here: CCCN(c1ccc(C)cc1)c1nc(=O)c2cccnc2s1
a: -20.6

q: Name the recorded activity change, negative = inhibition of the molecule listed here: COc1ccc(N2CCC(CNC(=S)Nc3c(C)cccc3C)C2)cc1 (stereo not drawn)
a: 0

q: Name the recorded activity change, negative = inhibition of the molecule listed here: O=C(CCc1nnc2ccc(NCCCN3CCCC3=O)nn12)NCc1ccccc1Cl
a: 0

q: Name the recorded activity change, negative = inhibition of the molecule listed here: Cc1cccn2c(=O)c(/C=C(\C#N)C(N)=O)c(N3CCCCCC3)nc12
a: -70.1

q: Name the recorded activity change, negative = inhibition of the molecule listed here: CCOc1ccc(N(CC)C(=O)c2noc3c2COc2ccc(C)cc2-3)cc1
a: -7.27
